Target: T1, TNFR1 (Homo sapiens, UniProt P19438)
T1 chain: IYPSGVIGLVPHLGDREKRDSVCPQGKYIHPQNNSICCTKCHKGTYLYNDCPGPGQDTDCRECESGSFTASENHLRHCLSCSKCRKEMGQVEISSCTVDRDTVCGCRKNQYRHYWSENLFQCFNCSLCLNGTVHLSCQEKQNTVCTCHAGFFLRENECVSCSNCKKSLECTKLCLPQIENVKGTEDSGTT
Experiment: yeast display SC50
measured metric: apparent Kd (screen) (nM)
Express your answer in nM, writing the number without its unit.

Enquiry: What does the data say about its apparent Kd (screen)? Entry: K72V (designed binder) MTLQELLREEALRRAEAEAFRYALELLAEKFPEQKEYLLDLAEEIESQIRSLSGVDVEDVRKFLDKEWAWVVELLAEHPAELAEVEAARAARLAELRAEVEAKVAA
Return: 0.593

Enquiry: Okay, and V85W (designed binder) MTLQELLREEALRRAEAEAFRYALELLAEKFPEQKEYLLDLAEEIESQIRSLSGVDVEDVRKFLDKEWAWVKELLAEHPAELAEWEAARAARLAELRAEVEAKVAA ?
Return: 0.869

Reference source: paper PMC12416549
